read-out: Pyruvate Dehydrogenase Kinase 4 (PDK4), PDK4 (gene 5166); assay: LTEA_HepaRG_PDK4: Life Technologies and Expression Analysis (LTEA) Assay for Pyruvate Dehydrogenase Kinase 4 (PDK4) using HepaRG (AID 2283525); conditions: mRNA level, 48 h; actives raise or lower the signal
Activity calls are given as the source filed them. The calls were made as follows: active = hit-call score of the fitted dose curve at least 0.9, where 1 is the maximum; inactive = score below 0.9.
I would appreciate it if you answered using one of these outcomes: active, inactive

Would you please look over these solved cases?
Cc1ccc(N)cc1    inactive
C1=Cc2cccc3cccc1c23    inactive
CCN(CC)N=O    inactive

Asked: For O=P(OCCCl)(OCCCl)OCCCl , what call appears in the results of this test?
Given back: inactive

Asked: For Nc1cc(Cl)cc(C(=O)O)c1Cl , what call appears in the results of this test?
Given back: inactive

Asked: For CO[C@@H]1[C@H](OC(=O)NC(=O)CCl)CC[C@]2(CO2)[C@H]1[C@@]1(C)O[C@@H]1CC=C(C)C , what call appears in the results of this test?
Given back: inactive

Asked: For COC(=O)Nc1nc2ccccc2[nH]1 , what call appears in the results of this test?
Given back: inactive

Asked: For N#CC(Br)(Br)C(N)=O , what call appears in the results of this test?
Given back: inactive
